Below is a list of entries, each paired with its recorded pKi value.
# TARGET_DESC: Glandular kallikrein (Sus scrofa, UniProt P00752)
# Sequence (P00752 whole entry): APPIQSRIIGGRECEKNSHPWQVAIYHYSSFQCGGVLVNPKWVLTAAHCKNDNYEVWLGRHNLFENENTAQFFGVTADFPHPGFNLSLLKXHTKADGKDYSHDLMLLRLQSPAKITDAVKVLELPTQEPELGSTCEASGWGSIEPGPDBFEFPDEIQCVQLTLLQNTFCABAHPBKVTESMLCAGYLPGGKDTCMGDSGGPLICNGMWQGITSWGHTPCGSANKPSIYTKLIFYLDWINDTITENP
# ASSAY_SUMMARY: Inhibition of porcine pancreatic kallikrein using BANA as substrate after 15 to 180 mins
pKi: −log10 of the molar value.
RECORDED_METRIC: pKi

- Cl.N=C(N)c1ccc(OCc2ccc(COc3ccc(C(=N)N)cc3)cc2)cc1: 4.94
- Cl.N=C(N)c1ccc(OCc2ccc(COc3ccc(C(=N)N)cc3Br)cc2)c(Br)c1: 6.15
- N=C(N)c1cccc(OCc2ccc3cc(COc4cccc(C(=N)N)c4)ccc3c2)c1: 5.26
- Cl.N=C(N)c1ccc(COc2cccc3c(OCc4ccc(C(=N)N)cc4)cccc23)cc1: 5.07
- Cl.N=C(N)c1ccc(OCc2ccc(COc3ccc(C(=N)N)cc3)c3ccccc23)cc1: 5.60
- Cl.N=C(N)c1cccc(OCc2ccc(COc3cccc(C(=N)N)c3)cc2)c1: 5.24
- Cl.N=C(N)c1cccc(OCc2cccc(COc3cccc(C(=N)N)c3)c2)c1: 5.47
- N=C(N)c1ccc(COc2ccc3cc(OCc4ccc(C(=N)N)cc4)ccc3c2)cc1: 5.01
- Cl.N=C(N)c1cccc(COc2ccc3cc(OCc4cccc(C(=N)N)c4)ccc3c2)c1: 5.26
- Cl.N=C(N)c1ccc(OCc2cccc(-c3cccc(COc4ccc(C(=N)N)cc4)c3)c2)cc1: 5.80
- Cl.N=C(N)c1cccc(COc2cccc3c(OCc4cccc(C(=N)N)c4)cccc23)c1: 5.66
- Cl.N=C(N)c1ccc(OCc2c(Cl)c(Cl)c(Cl)c(COc3ccc(C(=N)N)cc3)c2Cl)cc1: 5.28
- Cl.N=C(N)c1ccc(OCc2cccc(COc3ccc(C(=N)N)cc3)c2)cc1: 5.17
- Cl.N=C(N)c1ccc(OCc2cccc(-c3cccc(COc4ccc(C(=N)N)cc4Br)c3)c2)c(Br)c1: 5.66
- Cl.N=C(N)c1ccc(OCc2cc(COc3ccc(C(=N)N)cc3)c3ccccc3c2)cc1: 5.98
- Cl.N=C(N)c1cccc(OCc2cccc(-c3cccc(COc4cccc(C(=N)N)c4)c3)c2)c1: 5.75
- Cl.N=C(N)c1ccc(COc2ccc3ccc(OCc4ccc(C(=N)N)cc4)cc3c2)cc1: 5.55
- N=C(N)c1ccc(OCc2c(Cl)c(Cl)c(COc3ccc(C(=N)N)cc3)c(Cl)c2Cl)cc1: 5.47

----------
# Species on record: Cavia porcellus
# ASSAY_SUMMARY: Inhibition of guinea pig complement-mediated immune lysis of sheep red blood cells at 0.1 mM after 12 mins
RECORDED_METRIC: inhibition (%)

• Cl.N=C(N)c1ccc(OCc2ccc(COc3ccc(C(=N)N)cc3)cc2)cc1 = 25.9
• N=C(N)c1ccc(OCCCOc2ccc(C(=N)N)cc2Br)c(Br)c1 = 19.1
• Cl.N=C(N)c1cccc(OCc2cccc(COc3cccc(C(=N)N)c3)c2)c1 = 34
• Cl.N=C(N)c1ccc(OCc2cccc(COc3ccc(C(=N)N)cc3)c2)cc1 = 24.9
• Cl.N=C(N)c1cccc(OCc2ccc(COc3cccc(C(=N)N)c3)cc2)c1 = 19.1
• Cl.N=C(N)c1ccc(COc2cccc3c(OCc4ccc(C(=N)N)cc4)cccc23)cc1 = 0
• Cl.N=C(N)c1cccc(COc2cccc3c(OCc4cccc(C(=N)N)c4)cccc23)c1 = 39
